IC50 reference
biological target: FL hMALT1 enzyme (Homo sapiens); assay: biochemical;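 note: Cell-free protease assay: enzyme preincubated with compound 30 min at room temperature, then cleavage of fluorogenic Ac-LVSR-AMC substrate (100 µM) tracked by fluorescence (ex 360/em 460 nm)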
Sequence (Q9UDY8 whole entry): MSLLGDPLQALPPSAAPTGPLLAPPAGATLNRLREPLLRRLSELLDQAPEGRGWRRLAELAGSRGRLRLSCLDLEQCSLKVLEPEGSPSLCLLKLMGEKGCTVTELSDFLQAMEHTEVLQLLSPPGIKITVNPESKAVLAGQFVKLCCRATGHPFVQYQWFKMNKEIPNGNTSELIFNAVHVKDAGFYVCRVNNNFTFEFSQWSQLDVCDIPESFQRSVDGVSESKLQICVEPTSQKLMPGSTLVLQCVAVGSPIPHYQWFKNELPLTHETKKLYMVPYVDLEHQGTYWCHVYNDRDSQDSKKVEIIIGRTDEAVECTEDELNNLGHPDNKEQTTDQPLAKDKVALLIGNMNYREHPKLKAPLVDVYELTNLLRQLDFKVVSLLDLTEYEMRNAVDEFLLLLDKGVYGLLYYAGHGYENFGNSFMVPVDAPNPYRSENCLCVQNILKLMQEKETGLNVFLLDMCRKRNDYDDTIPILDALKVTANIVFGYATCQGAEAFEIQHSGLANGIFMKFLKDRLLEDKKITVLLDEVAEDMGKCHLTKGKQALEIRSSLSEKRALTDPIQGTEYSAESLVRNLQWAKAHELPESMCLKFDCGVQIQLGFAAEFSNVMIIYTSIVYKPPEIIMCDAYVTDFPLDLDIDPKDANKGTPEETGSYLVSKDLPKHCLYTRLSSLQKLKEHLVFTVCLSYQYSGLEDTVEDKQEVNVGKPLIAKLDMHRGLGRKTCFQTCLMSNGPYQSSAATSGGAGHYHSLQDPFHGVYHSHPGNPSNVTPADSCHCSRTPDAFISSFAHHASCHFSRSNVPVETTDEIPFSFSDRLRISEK
Entry rule: numbers only, all in nM.

Solved entries:
> print(dat)
                                   compound  endpoint  output.unit  result
1  CN(C(=O)CNS(C)(=O)=O)[C@@H](c1ccc(NC2Cc3ccc(Cl)c(Cl)c3C2)cn1)C(F)(F)F (single isomer, unassigned) [Example 381]      IC50           nM      77
2  CN(C(=O)[C@H]1C[C@H](N(C)C)C1)[C@@H](c1ccc(NC2Cc3ccccc3C2(C)C)cn1)C(F)(F)F (single isomer, unassigned) [Example 112]      IC50           nM     230

Please examine the following record next.
[ask] What does the data say about its IC50? Entry: CN(C(=O)CN1CC(=O)NC1=O)[C@@H](c1ccc(NC2Cc3ccccc3C2(C)C)cc1)C(F)(F)F (single isomer, unassigned) [Example 67]
[reply] 78
